Molecular target: HLA-A*02:01 heavy chain / β2-microglobulin (human)
Test: differential scanning fluorimetry
Classify by measured Tm of the peptide/HLA-A2 complex: True if it is equal to or exceeds 60 °C, False if it is smaller.

**Query** Given the entry SVLENFTIFL [TEAD1 neoantigen peptide …] , answer whether its Tm of the peptide/HLA-A2 complex meets or surpasses 60 °C.
**Result** False

**Query** Given the entry ILNAMIAKI [HAUS3 neoantigen peptide …] , answer whether its Tm of the peptide/HLA-A2 complex meets or surpasses 60 °C.
**Result** False

**Query** Given the entry HIAKSLFEV [FLNA neoantigen peptide …] , answer whether its Tm of the peptide/HLA-A2 complex meets or surpasses 60 °C.
**Result** False

**Query** Given the entry GLFGDIYLAI [CSNK1A1 neoantigen peptide …] , answer whether its Tm of the peptide/HLA-A2 complex meets or surpasses 60 °C.
**Result** False

**Query** Given the entry LLHTELERFL [DCAKD neoantigen peptide …] , answer whether its Tm of the peptide/HLA-A2 complex meets or surpasses 60 °C.
**Result** False

**Query** Given the entry FLDEFMEGV [ME-1 neoantigen peptide …] , answer whether its Tm of the peptide/HLA-A2 complex meets or surpasses 60 °C.
**Result** True

Values compiled from paper PMC6324732.
